Target: BRAF G469A (Homo sapiens, UniProt P15056, G469A)
Construct: Horizon Discovery (HCT-116 BRAF−/− cells); host or cells: HCT-116 BRAF−/− cells, clone 34, lentiviral transduction
Sequence (P15056 whole entry G469A): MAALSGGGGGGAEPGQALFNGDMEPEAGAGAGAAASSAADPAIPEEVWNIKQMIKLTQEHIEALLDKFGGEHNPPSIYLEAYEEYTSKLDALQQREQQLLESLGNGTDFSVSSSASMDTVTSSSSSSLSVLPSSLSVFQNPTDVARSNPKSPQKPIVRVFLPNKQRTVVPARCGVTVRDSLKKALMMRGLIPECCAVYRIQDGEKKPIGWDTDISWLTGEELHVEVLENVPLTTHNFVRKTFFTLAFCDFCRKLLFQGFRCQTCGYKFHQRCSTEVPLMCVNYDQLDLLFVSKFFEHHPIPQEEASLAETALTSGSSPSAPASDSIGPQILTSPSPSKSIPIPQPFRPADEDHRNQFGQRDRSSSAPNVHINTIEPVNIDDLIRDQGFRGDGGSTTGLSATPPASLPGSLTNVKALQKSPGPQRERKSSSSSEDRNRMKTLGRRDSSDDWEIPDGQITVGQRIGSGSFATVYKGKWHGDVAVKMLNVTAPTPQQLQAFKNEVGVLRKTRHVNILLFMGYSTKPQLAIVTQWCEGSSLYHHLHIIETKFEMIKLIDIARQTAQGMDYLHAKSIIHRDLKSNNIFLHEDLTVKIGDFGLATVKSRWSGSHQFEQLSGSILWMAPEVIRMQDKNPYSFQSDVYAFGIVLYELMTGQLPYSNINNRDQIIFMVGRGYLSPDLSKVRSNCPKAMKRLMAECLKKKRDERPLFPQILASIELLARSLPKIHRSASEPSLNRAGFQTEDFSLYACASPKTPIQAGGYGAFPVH
Test: BRAF HiBiT degradation assay, C-terminal HiBiT-tagged BRAF G469A overexpressed in HCT-116 BRAF−/− cells (clone 34), Nano-Glo HiBiT Lytic assay
Type: cell-based
Conditions: BRAF G469A (Class 2), HCT-116 BRAF−/− cells; DC50 at 50% degradation
DC50 by entry:

Below: 4 compounds and their reported DC50.
compound	result
CCN(C)S(=O)(=O)Nc1cc(Cl)cc(-c2cn(-c3ccc(N4CCN(CC5CCN(c6ccc([C@H]7CCC(=O)NC7=O)cc6)CC5)CC4)cn3)nc2-c2ccncc2)c1F	0.01 to 0.05 µM
O=C1CCN(c2ccc(N3CCC(CN4CCN(c5ccc(-n6cc(-c7cc(F)cc(NS(=O)(=O)N8CC[C@@H](F)C8)c7F)c(-c7ccncc7)n6)nc5)CC4)CC3)cc2)C(=O)N1	0.05 to 0.5 µM
CCCS(=O)(=O)Nc1cc(Cl)cc(-c2cn(-c3ccc(N4CCN(CC5CCN(c6ccc(N7CCC(=O)NC7=O)cc6)CC5)[C@H](C)C4)cc3)nc2-c2ccncc2)c1F	0.01 to 0.05 µM
O=C1CCC(c2ccc(N3CCC(CN4CCN(c5ccc(-n6cc(-c7cc(Cl)cc(NS(=O)(=O)N8CC[C@@H](F)C8)c7F)c(-c7ccncc7)n6)cc5F)CC4)CC3)nc2)C(=O)N1 (mixture of isomers)	< 0.01 µM

DC50 lookup needed for CCC(C)S(=O)(=O)Nc1cc(Cl)cc(-c2cn(-c3ccc(N4CCN(CC5CCN(c6ccc(N7CCC(=O)NC7=O)cc6)CC5)CC4)cc3)nc2-c2ccncc2)c1F (racemic) , thanks. 0.05 to 0.5 µM
